Sourced from patent US6365632B1

tested.target: [3H] Dopamine reuptake in rat brain tissue
protocol.details: in vitro [3H]dopamine reuptake inhibition in rat brain tissue
Format: biochemical
test.settings: means of ≧3 separate determinations
Would you mind telling me the reported Ki of each entry?
Numbers only, in nM.

compound: COc1ccc(C(CN(C)C)C2(O)CCCCC2)cc1 (centres unmarked)
tested.target: [3H] Dopamine reuptake in rat brain tissue
recorded.result: 2590

*Q* Tell me the measured Ki of CC(NC(C)(C)C)C(=O)c1cccc(Cl)c1 (centres unmarked) , please.
*A* 409

----------
tested.target: [3H] Noradenaline reuptake in rat brain tissue
protocol.details: in vitro [3H]noradrenaline reuptake inhibition in rat brain tissue
Type: biochemical
test.settings: means of ≧3 separate determinations
metric: Ki (nM)
Give bare numbers, in nM.

molecule: COc1ccc(C(CN(C)C)C2(O)CCCCC2)cc1 (centres unmarked)
Ki (nM): 196

Please turn your attention to the following entry.
*Q* # Ki lookup, item CC(NC(C)(C)C)C(=O)c1cccc(Cl)c1 (centres unmarked)
*A* 2590
